Values from ChEMBL document CHEMBL1131624

target: O-acyltransferase (Oryctolagus cuniculus, UniProt G1SFD9)
Sequence (G1SFD9 1-524): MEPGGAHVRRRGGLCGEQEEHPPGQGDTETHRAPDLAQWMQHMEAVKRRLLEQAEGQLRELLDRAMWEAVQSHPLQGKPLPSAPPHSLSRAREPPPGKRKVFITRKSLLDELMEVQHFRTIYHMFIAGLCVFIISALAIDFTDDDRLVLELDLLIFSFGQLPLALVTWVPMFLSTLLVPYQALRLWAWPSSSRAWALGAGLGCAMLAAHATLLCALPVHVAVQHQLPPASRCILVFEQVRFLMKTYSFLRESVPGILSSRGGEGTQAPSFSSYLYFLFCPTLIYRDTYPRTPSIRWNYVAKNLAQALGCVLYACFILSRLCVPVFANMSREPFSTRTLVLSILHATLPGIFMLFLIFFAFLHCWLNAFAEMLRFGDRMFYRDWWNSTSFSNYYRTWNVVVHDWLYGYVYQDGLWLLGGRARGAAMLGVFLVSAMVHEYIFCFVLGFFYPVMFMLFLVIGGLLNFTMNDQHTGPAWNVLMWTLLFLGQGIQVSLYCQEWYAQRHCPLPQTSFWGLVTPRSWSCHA
pIC50: −log10 of the molar value.
assay readout: pIC50

Before answering, review these 3 worked examples.
Cc1cc(C)c(NC(=O)N(Cc2cccc(-c3ccnn3C)c2)C2CCCCCC2)c(C)c1    7.46
CSc1cc(C)nc(SC)c1NC(=O)N(Cc1ccccc1)Cc1ccc(-c2ccnn2C)cc1    7.57
Cc1cc(C)c(NC(=O)N(Cc2ccc(-c3ccccc3)nc2)C2CCCCCC2)c(C)c1    6.59

1 = CN(C)c1ccc(CN(Cc2cccc(-c3cc[nH]n3)c2)C(=O)Nc2c(F)cc(F)cc2F)cc1
2 = O=C(Nc1c(F)cc(F)cc1F)N(Cc1ccc(-c2ccsc2)cc1)C1CCCCCC1
3 = Cc1cc(C)c(NC(=O)N(Cc2cc(-c3ccccc3)on2)C2CCCCCC2)c(C)c1
4 = Cc1cc(C)c(NC(=O)N(Cc2c[nH]c(-c3ccccc3)n2)C2CCCCCC2)c(C)c1
Order the 4 molecules from highest to lowest pIC50. In your reply, arrange the labels in the requested order. 1, 2, 3, 4
(1: 7.92, 2: 7.64, 3: 7.21, 4: 6.12)

P = CSc1cc(C)nc(SC)c1NC(=O)N(Cc1ccccc1)Cc1cccc(-c2ccnn2C)c1
Q = Cc1cc(C)c(NC(=O)N(Cc2cc(-c3ccccc3)[nH]n2)C2CCCCCC2)c(C)c1
R = CSc1cc(C)nc(SC)c1NC(=O)N(Cc1ccc(F)cc1)Cc1cccc(-c2cc[nH]n2)c1
List items by pIC50 in falling order. Give the labels in the order specified. P, R, Q

----------
target: Sterol O-acyltransferase, Soat (Rattus norvegicus) (UniProt Q7TQM4+O70536); experiment: Effective dose to reduce plasma total cholesterol level by 50% of the control value in cholesterol fed rats; assay type: functional
assay readout: ED50

Worked set:
Cc1cc(C)c(NC(=O)N(Cc2ccc(-n3cccn3)cc2)C2CCCCCC2)c(C)c1    > 1 mg/kg
Cc1cc(C)c(NC(=O)N(Cc2ccc(-c3cccs3)cc2)C2CCCCCC2)c(C)c1    0.28 mg/kg
Cc1cc(C)c(NC(=O)N(Cc2cccc(-c3cnn(C)c3)c2)C2CCCCCC2)c(C)c1    < 1 mg/kg
Cc1cc(C)c(NC(=O)N(Cc2ccc(-c3cnco3)cc2)C2CCCCCC2)c(C)c1    > 1 mg/kg

Moving on to another molecule below.
Quick check: ED50 of O=C(Nc1c(F)cc(F)cc1F)N(Cc1ccc(-c2ccccn2)cc1)C1CCCCCC1 ? > 1 mg/kg

----------
target: Sterol O-acyltransferase, Soat (Rattus norvegicus) (UniProt Q7TQM4+O70536); test: Percentage reduction in total cholesterol level at <1 mg/kg; format: functional, organism-based
assay readout: Reduction (%)

A selection of reference data follows.
Cc1cc(C)c(NC(=O)N(Cc2ccc(-c3ccccc3)o2)C2CCCCCC2)c(C)c1    68
CSc1cc(C)nc(SC)c1NC(=O)N(Cc1ccccc1)Cc1cccc(-c2ccn(C)n2)c1    77

I = Cc1cc(C)c(NC(=O)N(Cc2ccc(-n3cccc3)cc2)C2CCCCCC2)c(C)c1
II = Cc1cc(C)c(NC(=O)N(Cc2cccc(-c3nnn(C)n3)c2)C2CCCCCC2)c(C)c1
Between I and II , whose measured Reduction reads higher? Respond with the label that goes with your answer. II

I = Cc1cc(C)c(NC(=O)N(Cc2ccc(-c3ccccc3)s2)C2CCCCCC2)c(C)c1
II = CSc1cc(C)nc(SC)c1NC(=O)N(Cc1ccccc1)Cc1cccc(-c2ccnn2C)c1
Between the entries labelled I and II , which has a larger Reduction value on record? Field: selected label. Fill in the label of the entry you choose. II

----------
biological target: Sterol O-acyltransferase, Soat (Rattus norvegicus) (UniProt Q7TQM4+O70536); assay: Percentage reduction in total cholesterol level at >1 mg/kg; type: functional, organism-based
assay readout: Reduction (%)

a = Cc1cc(C)c(NC(=O)N(Cc2ccc(-n3ccnc3)cc2)C2CCCCCC2)c(C)c1
b = Cc1cc(C)c(NC(=O)N(Cc2ccc(-c3cn[nH]c3)cc2)C2CCCCCC2)c(C)c1
c = Cc1cc(C)c(NC(=O)N(Cc2ccc(-c3n[nH]c(C)n3)cc2)C2CCCCCC2)c(C)c1
d = Cc1cc(C)c(NC(=O)N(Cc2ccc(-c3ccccn3)cc2)C2CCCCCC2)c(C)c1
Sort key = Reduction. Sort direction = ascending. Apply to the list above. Give the labels in the order specified. b, c, a, d

P = Cc1cc(C)c(NC(=O)N(Cc2cccc(-c3nnnn3C)c2)C2CCCCCC2)c(C)c1
Q = Cc1cc(C)c(NC(=O)N(Cc2ccc(-c3cnco3)cc2)C2CCCCCC2)c(C)c1
Lower value of Reduction belongs to which: P or Q ? Response format: the label of the selected entry. Q

I = O=C(Nc1c(F)cc(F)cc1F)N(Cc1ccc(-c2ccccn2)cc1)C1CCCCCC1
II = Cc1cc(C)c(NC(=O)N(Cc2ccc(-n3ccnn3)cc2)C2CCCCCC2)c(C)c1
III = Cc1cc(C)c(NC(=O)N(Cc2ccc(-n3nccn3)cc2)C2CCCCCC2)c(C)c1
Arrange these molecules by their Reduction, starting with the largest number. # format: label list in the order the request specifies I, II, III

I = Cc1cc(C)c(NC(=O)N(Cc2cccc(-c3ccnn3C)c2)C2CCCCCC2)c(C)c1
II = O=C(Nc1c(F)cc(F)cc1F)N(Cc1ccc(-n2cccc2)cc1)C1CCCCCC1
Form: Entry with minimum Reduction (choose one): I / II Your answer should be the label attached to the chosen record. II
(II: 21%, I: 34%)

A = Cc1cc(C)c(NC(=O)N(Cc2ccc(-c3cc[nH]n3)cc2)C2CCCCCC2)c(C)c1
B = O=C(Nc1c(F)cc(F)cc1F)N(Cc1ccc(-c2cccs2)cc1)C1CCCCCC1
Of the two listed items, which has the higher Reduction? First: A Second: B Select an item and report its label. B

1 = Cc1cc(C)c(NC(=O)N(Cc2ccc(N3CCN(C)CC3)cc2)C2CCCCCC2)c(C)c1
2 = Cc1cc(C)c(NC(=O)N(Cc2ccccc2)Cc2cccc(-c3cc[nH]n3)c2)c(C)c1
Rank 1 against 2 by their Reduction values and give the higher one. Answer with the label corresponding to your selection. 2
(2: 36%, 1: 23%)

I = Cc1cc(C)c(NC(=O)N(Cc2ccc(-n3cncn3)cc2)C2CCCCCC2)c(C)c1
II = Cc1cc(C)c(NC(=O)N(Cc2cc(-c3ccccc3)on2)C2CCCCCC2)c(C)c1
Look at I and II . Which one has the lower recorded Reduction number? // output: label of the selected item I

----------
molecular target: Sterol O-acyltransferase, Soat (Rattus norvegicus) (UniProt Q7TQM4+O70536); test: Effective dose to reduce plasma total cholesterol level by 50% of the control value in cholesterol fed rats; type: functional
assay readout: ED50 (mg/kg)

a = Cc1cc(C)c(NC(=O)N(Cc2ccc(-c3ccsc3)cc2)C2CCCCCC2)c(C)c1
b = Cc1cc(C)c(NC(=O)N(Cc2cccc(-c3cn[nH]c3)c2)C2CCCCCC2)c(C)c1
Lab note: record which item had the higher ED50, a or b . Your answer should be the label attached to the chosen record. a
(a: 0.51 mg/kg, b: 0.19 mg/kg)

----------
The entries below come with measured ED50 values attached.
target: Sterol O-acyltransferase, Soat (Rattus norvegicus) (UniProt Q7TQM4+O70536); test: Effective dose to reduce plasma total cholesterol level by 50% of the control value in cholesterol fed rats; type: functional

Examples with answers:
Cc1cc(C)c(NC(=O)N(Cc2ccc(-n3ccnn3)cc2)C2CCCCCC2)c(C)c1    > 1 mg/kg
Cc1cc(C)c(NC(=O)N(Cc2ccc(-c3ccccc3)o2)C2CCCCCC2)c(C)c1    < 1 mg/kg
CN(C)c1ccc(CN(Cc2cccc(-c3cc[nH]n3)c2)C(=O)Nc2c(F)cc(F)cc2F)cc1    < 0.32 mg/kg
COc1cccc(CN(Cc2cccc(-c3cc[nH]n3)c2)C(=O)Nc2c(SC)cc(C)nc2SC)c1    > 0.1 mg/kg

ED50 lookup needed for CSc1cc(C)nc(SC)c1NC(=O)N(Cc1cccc(-c2cnn(C)c2)c1)C1CCCCCC1 , thanks. > 0.1 mg/kg

----------
Entries below carry reported IC50 on O-acyltransferase (Oryctolagus cuniculus, UniProt G1SFD9).
assay readout: IC50 (µM)

CC(C)c1cccc(C(C)C)c1OC(=O)NS(=O)(=O)Oc1c(C(C)C)cccc1C(C)C    4

A = CSc1cc(C)nc(SC)c1NC(=O)N(Cc1ccc(Oc2ccc(F)cc2)cc1)C1CCCCCC1
B = Cc1cc(C)c(NC(=O)N(Cc2ccc(-n3nccn3)cc2)C2CCCCCC2)c(C)c1
A or B : whose IC50 is greater? Label of pick, please. B
(B: 0.13 µM, A: 0.03 µM)

I = Cc1cc(C)c(NC(=O)N(Cc2ccc(-c3ccccn3)cc2)C2CCCCCC2)c(C)c1
II = O=C(Nc1c(F)cc(F)cc1F)N(Cc1ccc(-c2cccs2)cc1)C1CCCCCC1
Select one: I or II . Criterion: greater recorded IC50. When you have decided, please share the label of that item. I
(I: 0.033 µM, II: 0.018 µM)

A = Cc1cc(C)c(NC(=O)N(Cc2cccc(-c3cc[nH]n3)c2)C2CCCCC2)c(C)c1
B = Cc1cc(C)c(NC(=O)N(Cc2ccc(-c3ccccc3)cc2)C2CCCCCC2)c(C)c1
Kindly identify the item with the lower IC50 figure among these two: A and B Lab note: record the label of whichever item you select. B
(B: 0.024 µM, A: 0.039 µM)
